Give Ratio of Green/Red fluorescence, Rescreening (second column) for every item shown.
System: stationary phase B. burgdorferi persisters (strain B31)
assay: SYBR Green I/PI viability assay (plate reader), FDA-approved drug library screen
study.conditions: 50 μM, 7 days, stationary phase
Structures can show the parent of a compound that is named as a salt.
Lab note: jot the number down without any unit.

Req: Output measured Ratio of Green/Red fluorescence, Rescreening (second column) for this item: `O=C(O)C1=C(CSc2nnnn2CS(=O)(=O)O)CS[C@@H]2[C@H](NC(=O)[C@H](O)c3ccccc3)C(=O)N12`
Resp: 6.07

Req: Output measured Ratio of Green/Red fluorescence, Rescreening (second column) for this item: `[Bi]`
Resp: 6.92

Req: Output measured Ratio of Green/Red fluorescence, Rescreening (second column) for this item: `CO[C@@]1(NC(=O)CSCC#N)C(=O)N2C(C(=O)O)=C(CSc3nnnn3C)CS[C@@H]21`
Resp: 6.00

Req: Output measured Ratio of Green/Red fluorescence, Rescreening (second column) for this item: CO/N=C(\C(=O)N[C@@H]1C(=O)N2C(C(=O)[O-])=C(C[N+]3(C)CCCC3)CS[C@H]12)c1csc(N)n1 [Cefepime]
Resp: 6.45

Req: Output measured Ratio of Green/Red fluorescence, Rescreening (second column) for this item: `[H]/N=C(/N)N[C@H]1[C@H](O)[C@@H](O)[C@H](O[C@@H]2O[C@@H](C)[C@](O)(C=O)[C@H]2O[C@@H]2O[C@@H](CO)[C@H](O)[C@@H](O)[C@@H]2NC)[C@@H](N/C(N)=N\[H])[C@@H]1O`
Resp: 6.76

Req: Output measured Ratio of Green/Red fluorescence, Rescreening (second column) for this item: `CN(C)c1cc(NC(=O)CNC(C)(C)C)c(O)c2c1C[C@H]1C[C@H]3[C@H](N(C)C)C(O)=C(C(N)=O)C(=O)[C@@]3(O)C(O)=C1C2=O`
Resp: 6.96

Req: Output measured Ratio of Green/Red fluorescence, Rescreening (second column) for this item: `CO/N=C(\C(=O)N[C@@H]1C(=O)N2C(C(=O)O)=C(CSc3nnnn3C)CS[C@H]12)c1csc(N)n1`
Resp: 6.32

Req: Output measured Ratio of Green/Red fluorescence, Rescreening (second column) for this item: `CCCCCCCCCC(=O)N[C@@H](Cc1c[nH]c2ccccc12)C(=O)N[C@H](CC(N)=O)C(=O)N[C@@H](CC(=O)O)C(=O)N[C@@H]1C(=O)NCC(=O)N[C@@H](CCCN)C(=O)N[C@@H](CC(=O)O)C(=O)N[C@H](C)C(=O)N[C@@H](CC(=O)O)C(=O)NCC(=O)N[C@H](CO)C(=O)N[C@@H]([C@H](C)CC(=O)O)C(=O)N[C@@H](CC(=O)c2ccccc2N)C(=O)O[C@@H]1C`
Resp: 6.09

Req: Output measured Ratio of Green/Red fluorescence, Rescreening (second column) for this item: `CC[C@H]1OC(=O)[C@H](C)[C@@H](O[C@H]2C[C@@](C)(OC)[C@@H](O)[C@H](C)O2)[C@H](C)[C@@H](O[C@@H]2O[C@H](C)C[C@H](N(C)C)[C@H]2O)[C@](C)(O)C[C@@H](C)CN(C)[C@H](C)[C@@H](O)[C@]1(C)O`
Resp: 7.92

Req: Output measured Ratio of Green/Red fluorescence, Rescreening (second column) for this item: `CC(C)/N=c1\cc2n(-c3ccc(Cl)cc3)c3ccccc3nc-2cc1Nc1ccc(Cl)cc1`
Resp: 6.02

Req: Output measured Ratio of Green/Red fluorescence, Rescreening (second column) for this item: `CC(=O)OCC1=C(C(=O)O)N2C(=O)[C@@H](NC(=O)Cc3cccs3)[C@H]2SC1`
Resp: 6.55

Req: Output measured Ratio of Green/Red fluorescence, Rescreening (second column) for this item: `CC1(C)S[C@@H]2[C@H](NC(=O)C3(N)CCCCC3)C(=O)N2[C@H]1C(=O)O`
Resp: 7.64

Req: Output measured Ratio of Green/Red fluorescence, Rescreening (second column) for this item: `CCN(CC)Cc1cc(Nc2ccnc3cc(Cl)ccc23)ccc1O`
Resp: 6.85

Req: Output measured Ratio of Green/Red fluorescence, Rescreening (second column) for this item: `C[C@H]1c2cccc(O)c2C(=O)C2=C(O)[C@]3(O)C(=O)C(C(N)=O)=C(O)[C@@H](N(C)C)[C@@H]3[C@@H](O)[C@@H]21`
Resp: 7.58

Req: Output measured Ratio of Green/Red fluorescence, Rescreening (second column) for this item: `CCN1CCN(C(=O)N[C@@H](C(=O)N[C@@H]2C(=O)N3C(C(=O)O)=C(CSc4nnnn4C)CS[C@H]23)c2ccc(O)cc2)C(=O)C1=O`
Resp: 6.23

Req: Output measured Ratio of Green/Red fluorescence, Rescreening (second column) for this item: C=C[C@H]1C[N@@]2CC[C@H]1C[C@H]2[C@H](O)c1ccnc2ccc(OC)cc12 [Quinine hydrobromide]
Resp: 6.88

Req: Output measured Ratio of Green/Red fluorescence, Rescreening (second column) for this item: `Cn1nnnc1SCC1=C(C(=O)O)N2C(=O)[C@@H](NC(=O)[C@H](O)c3ccccc3)[C@H]2SC1`
Resp: 6.52

Req: Output measured Ratio of Green/Red fluorescence, Rescreening (second column) for this item: `CC1(C)S[C@@H]2[C@H](NC(=O)[C@H](N)c3ccc(O)cc3)C(=O)N2[C@H]1C(=O)O`
Resp: 7.82

Req: Output measured Ratio of Green/Red fluorescence, Rescreening (second column) for this item: `COc1cnc(NS(=O)(=O)c2ccc(N)cc2)nc1`
Resp: 6.98

Req: Output measured Ratio of Green/Red fluorescence, Rescreening (second column) for this item: `CN(C)CCn1nnnc1SCC1=C(C(=O)O)N2C(=O)[C@@H](NC(=O)Cc3csc(N)n3)[C@H]2SC1`
Resp: 6.21

Req: Output measured Ratio of Green/Red fluorescence, Rescreening (second column) for this item: NCc1ccccc1CC(=O)N[C@@H]1C(=O)N2C(C(=O)O)=C(CSc3nnnn3CC(=O)O)CS[C@H]12 [Ceforanide]
Resp: 6.33

Req: Output measured Ratio of Green/Red fluorescence, Rescreening (second column) for this item: `C=CC1=C(C(=O)O)N2C(=O)[C@@H](NC(=O)/C(=N\O)c3csc(N)n3)[C@H]2SC1`
Resp: 6.29

Req: Output measured Ratio of Green/Red fluorescence, Rescreening (second column) for this item: `C[C@@H]1[C@H](O)[C@@H](C)/C=C/C=C/C=C/C=C/C=C/C=C/C=C/[C@H](O[C@@H]2O[C@H](C)[C@@H](O)[C@H](N)[C@@H]2O)C[C@@H]2O[C@](O)(C[C@@H](O)C[C@@H](O)[C@H](O)CC[C@@H](O)C[C@@H](O)CC(=O)O[C@H]1C)C[C@H](O)[C@H]2C(=O)O`
Resp: 6.87

Req: Output measured Ratio of Green/Red fluorescence, Rescreening (second column) for this item: `CC[C@H]1OC(=O)[C@H](C)[C@@H](O[C@H]2C[C@@](C)(OC)[C@@H](O)[C@H](C)O2)[C@H](C)[C@@H](O[C@@H]2O[C@H](C)C[C@H](N(C)C)[C@H]2O)[C@](C)(OC)C[C@@H](C)C(=O)[C@H](C)[C@@H](O)[C@]1(C)O`
Resp: 7.59
